Cited source for all entries: patent US20180000085A1

Tested on: Puccinia triticina
assayNotes: Wheat brown rust (PUCCRT) disease control on wheat seedlings
Format: in vivo
studyConditions: high volume application, 100 ppm, 1 day protectant
quantityKind: PUCCRT 1DP disease control rating, HV activity at 100 ppm

These solved cases illustrate the format of a correct answer.
molecule	targetUnderTest	valueObserved
COc1ccnc(C(=O)NC(C)C(=O)OC(C)C(Oc2ccccc2)C2CCCCC2)c1O (stereo not drawn)	Puccinia triticina	A (> 80)
COc1ccnc(C(=O)N[C@@H](C)C(=O)O[C@@H](C)[C@H](Oc2cccc(Cl)c2)C2CCCC2)c1O	Puccinia triticina	A (> 80)
COc1ccnc(C(=O)N[C@@H](C)C(=O)O[C@@H](C)[C@H](Oc2ccc(Cl)cc2)C2CCCC2)c1O	Puccinia triticina	A (> 80)
COc1ccnc(C(=O)N[C@@H](C)C(=O)O[C@@H](C)[C@H](Oc2ccccc2)C2CC2)c1O	Puccinia triticina	A (> 80)
COc1ccnc(C(=O)NC(C)C(=O)OC(C)(C)C(Oc2ccccc2)C(C)C)c1O (stereo not drawn)	Puccinia triticina	B (≤ 80)
COc1ccnc(C(=O)N[C@@H](C)C(=O)O[C@@H](C)[C@H](Oc2cccc(F)c2)c2cccc(-c3ccccc3)c2)c1O	Puccinia triticina	B (≤ 80)

// PUCCRT 1DP disease control rating, HV activity at 100 ppm value for COc1ccnc(C(=O)N[C@@H](C)C(=O)O[C@@H](C)[C@H](Oc2cccc(F)c2)C2CCCC2)c1O : A (> 80)

// PUCCRT 1DP disease control rating, HV activity at 100 ppm value for CC[C@H](NC(=O)c1nccc(OC)c1O)C(=O)O[C@@H](C)[C@H](Oc1ccccc1)C(C)C : A (> 80)

// PUCCRT 1DP disease control rating, HV activity at 100 ppm value for C=CC[C@@H](Oc1cccc(Cl)c1)[C@H](C)OC(=O)[C@H](C)NC(=O)c1nccc(OC)c1O : A (> 80)

###

Tested on: Zymoseptoria tritici
assayNotes: Leaf blotch of wheat (SEPTTR) disease control on wheat seedlings
Assay type: in vivo
Parameters: key: A: > 80; B: ≤ 80; C: Not Tested; D: No Activity Observed in the Reported Assay
studyConditions: HV application at 100 ppm; 1 Day Protectant; wheat leaf blotch
quantityKind: SEPTTR 1DP disease control rating, HV activity

These solved cases illustrate the format of a correct answer.
compound	valueObserved
COc1ccnc(C(=O)N[C@@H](C)C(=O)O[C@@H](C)[C@@H](Cc2ccccc2)Oc2ccccc2)c1O [Cmpd 345]	D
CCCOC(CC)C(Oc1ccccc1)C(C)OC(=O)C(CC)NC(=O)c1nccc(OC)c1O (stereo not shown) [Cmpd 296]	B (≤ 80)
CCC(CC)C(Oc1cc(F)cc(Cl)c1)C(C)OC(=O)C(CC(C)C)NC(=O)c1nccc(OC)c1O (stereo not shown) [Cmpd 429]	B (≤ 80)
COc1ccnc(C(=O)NC(C)C(=O)OC(C)C(Oc2cccc(-c3ccccc3)c2)C(C)C)c1O (stereo not shown) [Cmpd 389]	B (≤ 80)

// SEPTTR 1DP disease control rating, HV activity value for COc1ccnc(C(=O)NC(C)C(=O)OC(C)C(OCC2CC2)c2cccc(-c3ccccc3)c2)c1O (stereo not shown) [Cmpd 442] : D

// SEPTTR 1DP disease control rating, HV activity value for CC[C@H](Oc1ccccc1)[C@@H](Oc1ccccc1)[C@H](C)OC(=O)[C@H](C)NC(=O)c1nccc(OC)c1O [Cmpd 309] : A (> 80)

// SEPTTR 1DP disease control rating, HV activity value for CCCOC(CC)C(Oc1ccccc1)C(C)OC(=O)C(CC(C)C)NC(=O)c1nccc(OC)c1O (stereo not shown) [Cmpd 291] : D

// SEPTTR 1DP disease control rating, HV activity value for COc1ccnc(C(=O)N[C@@H](C)C(=O)O[C@@H](C)[C@H](Oc2ccc(Cl)cc2Cl)C(C)C)c1O [Cmpd 358] : B (≤ 80)

// SEPTTR 1DP disease control rating, HV activity value for CCCOC(CC)C(Oc1ccccc1)C(C)OC(=O)C(C)NC(=O)c1nccc(OC)c1OC(C)=O (stereo not shown) [Cmpd 450] : A (> 80)

// SEPTTR 1DP disease control rating, HV activity value for COc1ccnc(C(=O)NC(C)C(=O)OC(C)C(Oc2cc(F)cc(Cl)c2)C(C)C)c1O (stereo not shown) [Cmpd 393] : B (≤ 80)

// SEPTTR 1DP disease control rating, HV activity value for COc1ccnc(C(=O)NC(C(=O)OC(C)C(Oc2cccc3ccccc23)C(C)C)C(C)C)c1O (stereo not shown) [Cmpd 400] : B (≤ 80)

// SEPTTR 1DP disease control rating, HV activity value for COc1ccnc(C(=O)N[C@@H](C)C(=O)O[C@H](C)[C@@H](Oc2ccccc2)C(C)C)c1O [Cmpd 349] : D

// SEPTTR 1DP disease control rating, HV activity value for CCCOC[C@@H](Oc1ccccc1)[C@H](C)OC(=O)[C@H](CC)NC(=O)c1nccc(OC)c1O [Cmpd 314] : B (≤ 80)
